# Tested on: Erythrocyte
# Assay Procedure: Hemolytic activity in human RBC by spectrophotometry
# Format: ADME, cell-based
Reported Endpoint: Activity

[
  {
    "Compound": "C[C@H]1OC(c2ccc(I)cc2O)=N[C@H]1C(=O)OCc1ccccc1",
    "Activity": "> 128 µg/mL"
  },
  {
    "Compound": "C[C@@H]1OC(c2cc(Cl)c3ccccc3c2O)=NC1C(=O)OCc1ccoc1 (single isomer, unassigned)",
    "Activity": "> 128 µg/mL"
  },
  {
    "Compound": "C=CCOC(=O)C1N=C(c2cc(Cl)c3ccccc3c2O)O[C@H]1C (single isomer, unassigned)",
    "Activity": "> 128 µg/mL"
  },
  {
    "Compound": "COc1cccc(O)c1C1=N[C@@H](C(=O)OCc2ccccc2)[C@@H](C)O1",
    "Activity": "> 128 µg/mL"
  },
  {
    "Compound": "C[C@@H]1OC(c2cc(Cl)c3ccccc3c2O)=NC1C(=O)Nc1ccc2ncsc2c1 (single isomer, unassigned)",
    "Activity": "> 128 µg/mL"
  }
]

Task: Reported Activity for C[C@H]1OC(c2ccccc2O)=N[C@H]1C(=O)OCc1ccccc1 : what is it?
Result: > 128 µg/mL

Task: Reported Activity for COc1ccc(O)c(C2=N[C@@H](C(=O)OCc3ccccc3)[C@@H](C)O2)c1 : what is it?
Result: > 128 µg/mL

---

# Assay Procedure: Selectivity index, ratio of HA50 to human RCB to MIC of antifungal activity against Candida tropicalis ATCC 200956
# Format: toxicity
# Experimental Parameters: human red blood cells (RCB)
Catalogue of compounds with associated selectivity ratio

Take a look at these entries with their results.
[
  {
    "Compound": "C[C@H]1OC(c2cc(I)ccc2O)=N[C@H]1C(=O)OCc1ccccc1",
    "selectivity ratio": "≥ 128"
  },
  {
    "Compound": "C[C@@H]1OC(c2cc(Br)c3ccccc3c2O)=N[C@@H]1C(=O)OCc1ccccc1 (single isomer, unassigned)",
    "selectivity ratio": "≥ 256"
  },
  {
    "Compound": "C=CCOC(=O)C1N=C(c2cc(Cl)c3ccccc3c2O)O[C@H]1C (single isomer, unassigned)",
    "selectivity ratio": "≥ 128"
  },
  {
    "Compound": "C[C@@H]1OC(c2cc(Cl)c3ccccc3c2O)=NC1C(=O)OCc1ccoc1 (single isomer, unassigned)",
    "selectivity ratio": "≥ 32"
  },
  {
    "Compound": "OC(Cn1cncn1)(Cn1cncn1)c1ccc(F)cc1F",
    "selectivity ratio": "≥ 1"
  },
  {
    "Compound": "C[C@H]1OC(c2cc(F)ccc2O)=N[C@H]1C(=O)OCc1ccccc1",
    "selectivity ratio": "≥ 128"
  },
  {
    "Compound": "C[C@@H]1OC(c2ccc3ccccc3c2O)=N[C@@H]1C(=O)OCc1ccccc1",
    "selectivity ratio": "≥ 256"
  },
  {
    "Compound": "C[C@H]1OC(c2cc(Br)ccc2O)=N[C@H]1C(=O)OCc1ccccc1",
    "selectivity ratio": "≥ 128"
  },
  {
    "Compound": "COc1cccc(O)c1C1=N[C@@H](C(=O)OCc2ccccc2)[C@@H](C)O1",
    "selectivity ratio": "≥ 8"
  },
  {
    "Compound": "C[C@H]1OC(c2ccccc2O)=N[C@H]1C(=O)OCc1ccccc1",
    "selectivity ratio": "≥ 32"
  }
]

Task: Reported selectivity ratio for C[C@@H]1[C@H](O)[C@@H](C)/C=C/C=C/C=C/C=C/C=C/C=C/C=C/[C@H](O[C@@H]2O[C@H](C)[C@@H](O)[C@H](N)[C@@H]2O)C[C@@H]2O[C@](O)(C[C@@H](O)C[C@@H](O)[C@H](O)CC[C@@H](O)C[C@@H](O)CC(=O)O[C@H]1C)C[C@H](O)[C@H]2C(=O)O : what is it?
Result: ≥ 68

Task: Reported selectivity ratio for COC(=O)[C@H]1N=C(c2ccc3ccccc3c2O)O[C@H]1C : what is it?
Result: ≥ 8

Task: Reported selectivity ratio for C[C@@H]1OC(c2cc(Cl)c3ccccc3c2O)=N[C@@H]1C(=O)OCc1ccccc1 : what is it?
Result: ≥ 64

Task: Reported selectivity ratio for C[C@@H]1OC(c2cc(Cl)c3ccccc3c2O)=NC1C(=O)Nc1ccccc1NC(=O)[C@@H]1N=C(c2cc(Cl)c3ccccc3c2O)O[C@@H]1C (single isomer, unassigned) : what is it?
Result: ≥ 32

Task: Reported selectivity ratio for C[C@H]1OC(c2ccc(Cl)cc2O)=N[C@H]1C(=O)OCc1ccccc1 : what is it?
Result: ≥ 512

Task: Reported selectivity ratio for CC[C@H](C)C[C@H](C)CCCCCCCCC(=O)N[C@H]1C[C@@H](O)[C@@H](NCCN)NC(=O)[C@@H]2[C@@H](O)CCN2C(=O)[C@H]([C@H](O)CCN)NC(=O)[C@H]([C@H](O)[C@@H](O)c2ccc(O)cc2)NC(=O)[C@@H]2C[C@@H](O)CN2C(=O)[C@H]([C@@H](C)O)NC1=O : what is it?
Result: ≥ 16

Task: Reported selectivity ratio for CCNC(=O)C1N=C(c2cc(Cl)c3ccccc3c2O)O[C@H]1C (single isomer, unassigned) : what is it?
Result: ≥ 128

---

# System: Candida tropicalis
# Assay Procedure: Antifungal activity against Candida tropicalis ATCC 200956 by CLSI standard M27 broth microdilution method
# Format: functional
Reported Endpoint: MIC

Take a look at these entries with their results.
[
  {
    "Compound": "C=CCOC(=O)C1N=C(c2cc(Cl)c3ccccc3c2O)O[C@H]1C (single isomer, unassigned)",
    "MIC": "≤ 0.03 µg/mL"
  },
  {
    "Compound": "C[C@@H]1[C@H](O)[C@@H](C)/C=C/C=C/C=C/C=C/C=C/C=C/C=C/[C@H](O[C@@H]2O[C@H](C)[C@@H](O)[C@H](N)[C@@H]2O)C[C@@H]2O[C@](O)(C[C@@H](O)C[C@@H](O)[C@H](O)CC[C@@H](O)C[C@@H](O)CC(=O)O[C@H]1C)C[C@H](O)[C@H]2C(=O)O",
    "MIC": "≤ 0.03 µg/mL"
  },
  {
    "Compound": "CCNC(=O)[C@H]1N=C(c2ccc3ccccc3c2O)O[C@H]1C",
    "MIC": "≤ 0.03 µg/mL"
  },
  {
    "Compound": "COC(=O)[C@H]1N=C(c2ccc3ccccc3c2O)O[C@H]1C",
    "MIC": "0.06 µg/mL"
  },
  {
    "Compound": "C#CCNC(=O)C1N=C(c2cc(Cl)c3ccccc3c2O)O[C@H]1C (single isomer, unassigned)",
    "MIC": "≤ 0.03 µg/mL"
  }
]

Task: Reported MIC for CC[C@H](C)C[C@H](C)CCCCCCCCC(=O)N[C@H]1C[C@@H](O)[C@@H](NCCN)NC(=O)[C@@H]2[C@@H](O)CCN2C(=O)[C@H]([C@H](O)CCN)NC(=O)[C@H]([C@H](O)[C@@H](O)c2ccc(O)cc2)NC(=O)[C@@H]2C[C@@H](O)CN2C(=O)[C@H]([C@@H](C)O)NC1=O : what is it?
Result: ≤ 0.03 µg/mL

---

# System: Candida tropicalis
# Assay Procedure: Antifungal activity against Candida tropicalis ATCC 200956 by CLSI standard M27 broth microdilution method
# Format: functional
Catalogue of compounds with associated MIC

[
  {
    "Compound": "C[C@H]1OC(c2ccc(I)cc2O)=N[C@H]1C(=O)OCc1ccccc1",
    "MIC": "≤ 0.03 µg/mL"
  },
  {
    "Compound": "C[C@H]1OC(c2ccccc2O)=N[C@H]1C(=O)OCc1ccccc1",
    "MIC": "≤ 0.03 µg/mL"
  },
  {
    "Compound": "C[C@@H]1OC(c2cc(Cl)c3ccccc3c2O)=NC1C(=O)Nc1ccccc1NC(=O)[C@@H]1N=C(c2cc(Cl)c3ccccc3c2O)O[C@@H]1C (single isomer, unassigned)",
    "MIC": "≤ 0.03 µg/mL"
  },
  {
    "Compound": "C[C@H]1OC(c2ccc(Cl)cc2O)=N[C@H]1C(=O)OCc1ccccc1",
    "MIC": "≤ 0.03 µg/mL"
  },
  {
    "Compound": "CCNC(=O)C1N=C(c2cc(Cl)c3ccccc3c2O)O[C@H]1C (single isomer, unassigned)",
    "MIC": "0.06 µg/mL"
  }
]

Task: Identify the measured MIC of C[C@@H]1OC(c2cc(Br)c3ccccc3c2O)=N[C@@H]1C(=O)OCc1ccccc1 (single isomer, unassigned) for Candida tropicalis.
Result: ≤ 0.03 µg/mL

Task: Identify the measured MIC of C[C@@H](O)[C@H](NC(=O)c1ccc2ccccc2c1O)C(=O)OCc1ccccc1 for Candida tropicalis.
Result: 8 µg/mL

Task: Identify the measured MIC of C[C@@H]1OC(c2cc(Cl)c3ccccc3c2O)=NC1C(=O)Nc1ccc2ncsc2c1 (single isomer, unassigned) for Candida tropicalis.
Result: ≤ 0.03 µg/mL
